- Tested target: Beta-secretase 1 (Homo sapiens)
- Sequence (P56817 whole entry): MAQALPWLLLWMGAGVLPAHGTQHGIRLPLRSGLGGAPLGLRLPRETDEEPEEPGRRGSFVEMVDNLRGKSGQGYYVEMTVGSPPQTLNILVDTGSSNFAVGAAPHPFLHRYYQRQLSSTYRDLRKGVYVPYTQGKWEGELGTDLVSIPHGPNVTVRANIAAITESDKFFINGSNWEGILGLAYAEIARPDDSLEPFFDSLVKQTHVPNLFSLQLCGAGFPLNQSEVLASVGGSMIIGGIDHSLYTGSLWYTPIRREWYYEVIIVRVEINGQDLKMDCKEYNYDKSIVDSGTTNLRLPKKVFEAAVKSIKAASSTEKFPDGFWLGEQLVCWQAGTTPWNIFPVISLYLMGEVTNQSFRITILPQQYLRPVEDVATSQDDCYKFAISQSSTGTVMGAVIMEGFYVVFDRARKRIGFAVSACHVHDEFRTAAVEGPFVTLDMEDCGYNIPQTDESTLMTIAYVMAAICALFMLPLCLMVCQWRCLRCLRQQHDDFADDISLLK
Property label: pIC50
Answers are plain numbers, as −log10 of the molar value.

• C[C@@]1(c2cc(NC(=O)c3ccc(Cl)cn3)ccc2F)C=CSC(N)=N1 = 8.26
• C[C@@]1(c2cc(NC(=O)c3ncc(C#N)cc3Cl)ccc2F)C=CSC(N)=N1 = 8.80
• C[C@@]1(c2cc(C(=O)Nc3ccc(Cl)cn3)ccc2F)CCSC(N)=N1 = 9.08

Give pIC50 for each listed item.
1. CC1(c2cccc(C(=O)Nc3ccc(Cl)cn3)c2)CCSC(N)=N1 (stereo not drawn)
2. COc1cnc(C(=O)Nc2ccc(F)c([C@]3(C)C=CSC(N)=N3)c2)cn1
3. C=C1C[C@@](C)(c2cc(NC(=O)c3ccc(C#N)cn3)ccc2F)N=C(N)S1
4. N#Cc1ccc(C(=O)Nc2ccc(F)c([C@]3(CF)CCSC(N)=N3)c2)nc1

Resp:
1: 6.77; 2: 8.36; 3: 8.96; 4: 9.21

Req: Which pIC50 value belongs to C[C@@]1(c2cc(NC(=O)c3ccc(F)cn3)ccc2F)C=CSC(N)=N1 ?
Resp: 8.38
